Each entry below lists one item and its recorded log10(IC50) value.
measured target: HLA-DR DRB1*1501 (human)
measurement description: radiolabeled-peptide inhibition, purified HLA-DR
Answers are given as log10 of IC50 in µM.

Consider the following illustrative entries.
- ITGYLYISAWPDSLP [9019.0050]: -0.82
- KIPVAIKVLRENTSP [1622.03]: -0.21
- LQGLPREYVNARHCL [9019.0064]: -0.37

Problem: Quick one: log10(IC50) for PESFDGDPASNTAPL [9019.0048] ?
Result: -0.09

Problem: Returns the measured log10(IC50) for the input binder. Input: ISAVVGILLVVVLGV [9019.0067]
Result: 0.78
